Listed here: items and their measured pIC50.
- target_system: human TLR7 (Homo sapiens)
- Sequence (Q9NYK1 27-1049): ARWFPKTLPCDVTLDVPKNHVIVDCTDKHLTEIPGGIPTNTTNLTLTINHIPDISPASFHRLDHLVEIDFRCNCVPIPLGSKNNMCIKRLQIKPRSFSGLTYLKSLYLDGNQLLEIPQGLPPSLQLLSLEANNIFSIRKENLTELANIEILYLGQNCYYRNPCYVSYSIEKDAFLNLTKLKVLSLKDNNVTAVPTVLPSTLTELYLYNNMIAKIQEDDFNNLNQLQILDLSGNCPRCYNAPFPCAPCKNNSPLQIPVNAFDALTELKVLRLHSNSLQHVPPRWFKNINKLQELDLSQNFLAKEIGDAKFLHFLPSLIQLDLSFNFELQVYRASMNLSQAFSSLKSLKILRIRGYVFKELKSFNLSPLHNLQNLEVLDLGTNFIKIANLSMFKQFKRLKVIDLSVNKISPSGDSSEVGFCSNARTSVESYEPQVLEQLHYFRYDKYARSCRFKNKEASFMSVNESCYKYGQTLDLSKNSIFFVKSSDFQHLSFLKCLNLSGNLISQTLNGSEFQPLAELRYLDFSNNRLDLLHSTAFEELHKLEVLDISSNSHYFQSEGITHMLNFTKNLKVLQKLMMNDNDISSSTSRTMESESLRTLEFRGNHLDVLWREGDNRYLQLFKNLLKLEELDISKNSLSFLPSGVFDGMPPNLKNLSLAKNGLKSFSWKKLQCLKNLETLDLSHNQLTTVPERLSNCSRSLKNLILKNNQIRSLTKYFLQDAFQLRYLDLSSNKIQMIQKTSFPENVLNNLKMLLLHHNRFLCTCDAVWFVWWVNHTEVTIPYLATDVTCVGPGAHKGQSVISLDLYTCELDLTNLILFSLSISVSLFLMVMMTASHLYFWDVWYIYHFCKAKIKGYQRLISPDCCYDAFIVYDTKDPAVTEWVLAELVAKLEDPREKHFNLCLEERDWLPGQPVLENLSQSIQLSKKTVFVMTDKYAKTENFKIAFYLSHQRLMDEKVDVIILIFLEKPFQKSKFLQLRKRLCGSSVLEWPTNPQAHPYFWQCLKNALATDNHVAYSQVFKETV
- assay_method_text: TLR7 inhibition reporter assay (HEK-Blue cells, SEAP reporter, gardiquimod stimulation)
- run_parameters: HEK-Blue cells overexpressing human TLR7, gardiquimod 7.5 μM
Worth noting: pIC50 values are minus log10 of concentrations stated in mol/L.

> print(dat)
                                   molecule              target.system  quantitative.result
1  CCN(CC)C(=O)C1CCCN(CC(=O)N2CCC(c3ccc4[nH]c(-c5ccc(OC)c(OC)c5)c(C(C)C)c4c3)CC2)C1 (centres unmarked) [Example 247]  human TLR7 (Homo sapiens)                 7.40

Would you kindly share the measured pIC50 for COc1ccc(-c2[nH]c3ccc(C4CCN(CC(=O)NCCCN5CCCC5=O)CC4)cc3c2CC(F)(F)F)cc1OC ?
6.75

Would you kindly share the measured pIC50 for CCc1c(-c2ccc(OC)c(OC)c2)[nH]c2ccc(C3CCN(C(=O)CN4CCCC(C(=O)N(CC)CC)C4)CC3)cc12 (single isomer, unassigned) [Example 178] ?
6.32

Would you kindly share the measured pIC50 for COc1ccc(-c2[nH]c3ccc(C4CCN(CC(=O)N5CCC(N(C)C)CC5)CC4)cc3c2CC(F)(F)F)cc1OC ?
7.64

Would you kindly share the measured pIC50 for COc1ccc(-c2[nH]c3ccc(C4CCN(C5CCN(Cc6cccn6C)CC5)CC4)cc3c2C)cc1OC ?
6.65

Would you kindly share the measured pIC50 for COc1ccc(-c2[nH]c3ccc(C4CCN(C(=O)CN5CCCCC5C[C@@H]5CCCN5C)CC4)cc3c2C(C)C)cc1OC (some centres unmarked) ?
6.35

Would you kindly share the measured pIC50 for COc1ccc(-c2[nH]c3ccc(C4CCN(Cc5ccc6ccccc6n5)CC4)cc3c2C)cc1OC ?
5.57
